Source listed as patent US5294720A.

measurement_target: HIV protease (Human immunodeficiency virus type 1 group M subtype B)
Construct: inclusion bodies of E. coli harboring plasmid containing HIV protease under the control of the T7 promotor; made in house; host or cells: E. coli (A: crude lysate, lac promotor)
procedure_summary: Cell free protease inhibition assay (HIV gag polyprotein cleavage)
Assay type: biochemical
cond: Table XVII; unit inferred; IC50 per method; read-out: Cell Free Assay (converted)
Counter-ions that a name gives are not always drawn.
Range-based classes on measured IC50: I: < 20 µM; II: ≥ 20 µM and < 900 µM; III: ≥ 900 µM

Consider CC(C)(C)OC(=O)N1CCCC1C(O)C(O)C1CCCN1C(=O)OC(C)(C)C (stereo not shown) [Example 7] . To which IC50 class does it belong?
III

# bin label for CC(C)CC(NC(=O)OC(C)(C)C)C(O)C(O)C(CC(C)C)NC(=O)OC(C)(C)C (stereo not shown) [Example 6]
I

Dear colleague, I would appreciate it if you could identify the bin for N[C@@H](Cc1ccccc1)[C@H](O)[C@@H](O)[C@@H](N)Cc1ccccc1 [Example 15, dihydrochloride] and reply at your convenience.
II

Into which category would you place CC(C)(C)OC(=O)NCC(O)C(O)CNC(=O)OC(C)(C)C (stereo not shown) [Example 3] ?
III

For this molecule, which bin applies? O=C(NC(Cc1ccccc1)C(O)C(O)C(Cc1ccccc1)NC(=O)OCc1ccccc1)OCc1ccccc1 (stereo not shown) [Example 9]
I

Looking at CC(C)(C)OC(=O)NC(c1ccccc1)C(O)C(O)C(NC(=O)OC(C)(C)C)c1ccccc1 (stereo not shown) [Example 8] , which class would you pick?
III

Tag the class for CCC(C)C(NC(=O)Cc1ccccn1)C(=O)NC(Cc1ccccc1)C(O)C(O)C(Cc1ccccc1)NC(=O)C(NC(=O)Cc1ccccn1)C(C)CC (stereo not shown) [Example 21]
I

For this molecule, which bin applies? CC(C)(C)OC(=O)NC(Cc1ccc(I)cc1)C(O)C(O)C(Cc1ccc(I)cc1)NC(=O)OC(C)(C)C (stereo not shown) [Example 12]
I

Categorize the following entry: CC(C)(C)OC(=O)N[C@@H](Cc1ccccc1)[C@H](O)[C@H](O)[C@H](Cc1ccccc1)NC(=O)OC(C)(C)C [Example 2C]
II

* * *

Measured IC50 accompanies every entry in the list below.
measurement_target: HIV protease (Human immunodeficiency virus type 1 group M subtype B, UniProt P04585)
Construct: inclusion bodies of E. coli harboring plasmid containing HIV protease under the control of the T7 promotor; made in house; host or cells: E. coli (A: crude lysate, lac promotor)
procedure_summary: Cell free protease inhibition assay (HIV gag polyprotein cleavage)
Assay type: biochemical
cond: Table XVII; unit inferred; IC50 per method; read-out: Cell Free Assay (converted)
Counter-ions that a name gives are not always drawn.
Please provide the amount together with its unit, number first.

• CC[C@H](C)[C@H](NC(=O)Cc1ccccn1)C(=O)N[C@@H](Cc1ccccc1)[C@@H](O)[C@H](O)[C@H](Cc1ccccc1)NC(=O)[C@@H](NC(=O)Cc1ccccn1)[C@@H](C)CC = 0.0131 µM
• CC(=O)N[C@@H](Cc1ccccc1)[C@@H](O)[C@H](O)[C@H](Cc1ccccc1)NC(C)=O = 1250 µM
• CC(C)(C)OC(=O)N[C@@H](Cc1ccccc1)[C@@H](O)[C@H](O)[C@H](Cc1ccccc1)NC(=O)OC(C)(C)C = 0.34 µM
• CC(N)C(O)C(O)C(C)N (stereo not shown) [Example 17, dihydrochloride] = 1260 µM
• N[C@@H](Cc1ccccc1)[C@@H](O)[C@H](O)[C@@H](N)Cc1ccccc1 [Example 16, dihydrochloride] = 866 µM
• CSCCC(NC(=O)OC(C)(C)C)C(O)C(O)C(CCSC)NC(=O)OC(C)(C)C (stereo not shown) [Example 1A] = 25.6 µM
• CC(C)(C)OC(=O)N[C@@H](Cc1ccccc1)[C@H](O)[C@@H](O)[C@H](Cc1ccccc1)NC(=O)OC(C)(C)C = 24 µM
• CC(C)(C)OC(=O)NC(Cc1ccc(O)cc1)C(O)C(O)C(Cc1ccc(O)cc1)NC(=O)OC(C)(C)C (stereo not shown) = 6.2 µM

Test system HIV protease (Human immunodeficiency virus type 1 group M subtype B, UniProt P04585); read-out IC50; what value for CSCCC(NC(=O)OC(C)(C)C)C(O)C(O)C(CCSC)NC(=O)OC(C)(C)C (stereo not shown) [Example 1B] ?
78.9 µM

Can you look up IC50 on HIV protease (Human immunodeficiency virus type 1 group M subtype B, UniProt P04585) for CC(NC(=O)OC(C)(C)C)C(O)C(O)C(C)NC(=O)OC(C)(C)C (stereo not shown) ?
1250 µM

Please provide the recorded IC50 for CC(C)(C)OC(=O)NC(CCc1ccccc1)C(O)C(O)C(CCc1ccccc1)NC(=O)OC(C)(C)C (stereo not shown) , tested on HIV protease (Human immunodeficiency virus type 1 group M subtype B, UniProt P04585).
1130 µM

What measured IC50 is associated with CC(C)C(NC(=O)OC(C)(C)C)C(O)C(O)C(NC(=O)OC(C)(C)C)C(C)C (stereo not shown) on HIV protease (Human immunodeficiency virus type 1 group M subtype B, UniProt P04585)?
161 µM

Query the reported IC50 for HIV protease (Human immunodeficiency virus type 1 group M subtype B, UniProt P04585); item: CC(C)(C)OC(=O)NC(Cc1ccc(F)cc1)C(O)C(O)C(Cc1ccc(F)cc1)NC(=O)OC(C)(C)C (stereo not shown)
37.3 µM
